- assay-name: qHTS assay for identifying genotoxic compounds that show differential cytotoxicity against isogenic chicken DT40 cell lines with known DNA damage response pathways - Rev3 mutant cell line (AID 743014); also: nearly all actives have a fitted effect of over 55% in size
- details: chicken DT40 Rev3-/- viability, CellTiter-Glo, 40 h; series mostly up to 68.4 µM
Results filed as inconclusive are left out. Active and inactive are the calls of the source. Calls follow the shape of the dose curve; as a rule, active = well fitted cell-killing curve with a large enough effect in the repeat runs; inconclusive = weak or mixed curves, or effect the other way; inactive = no such curve, though single readings can be large or run the other way.
Parameter call: string, one of True (active), False (inactive)

Just curious, what result did COc1ccccc1OC get here? False

Same lookup for CCOP(=O)(CN(CCO)CCO)OCC , please. False

Similarly, O=C(Cl)CCl ? False

Entry to check: CCOC(=O)COc1ccc(Cl)cc1Cl False

Try CCCCCCC1CCOC1=O (stereo unspecified) next. False

Follow-up entry: O=C(O)CBr False

Another molecule to check: C/C(=N\NC(=O)Nc1cc(F)cc(F)c1)c1ncccc1C(=O)O False

What do we get for COc1cc(CC(C)N)cc(OC)c1OC (stereo unspecified) ? False

And CC(C)(O)C(Cl)(Cl)Cl ? False

Now consider NC(=O)OCCCc1ccccc1 and answer again. True

// same read-out, input: CCN(CC)C1CCCCC1 False

Cool, now Clc1nc(Cl)nc(Nc2ccccc2Cl)n1 False

Also, O=C1CC(=O)NC(=O)N1 please. False

Okay, and C#CC(C)(C)O ? False

And O=P(O)(O)CN(CP(=O)(O)O)CP(=O)(O)O ? False

Cool, now CC(C)N(Cc1ccccc1)C(=O)C(C)(C)C True

----------
- assay-name: qHTS assay for small molecule disruptors of the mitochondrial membrane potential (AID 720635)
- details: HepG2 mitochondrial membrane potential, Mito-MPS dye ratio; series mostly up to 83.2 µM
Results filed as inconclusive are left out. Active and inactive are the calls of the source. Calls come from the whole dose curve; as a rule, active = well fitted inhibition curve with a large enough effect in the signal ratio in the repeat runs; inconclusive = weak or mixed curves, or effect the other way; inactive = flat fitted curve, though single readings scatter; the % refers to the signal ratio.
Log the outcome using a class from active, inactive

// return assay outcome for CC1N=C(N)OC1c1ccccc1 (stereo unspecified) inactive

Try this compound too: C=CCc1cc(OC)c2c(c1)OCO2 inactive

What do we get for NC(=O)OCCCc1ccccc1 ? inactive

Please give the result for COc1ccc(CN2CCNCC2)c(OC)c1OC too. inactive

// query: CCCCS(=O)(=O)Cl inactive

What do you get for O=C(Cl)CCl ? inactive

Follow-up item: CC(C)[N+](C)(CCC(C(N)=O)(c1ccccc1)c1ccccc1)C(C)C inactive

And S=C=S ? inactive

Likewise for C[C@]12C=CC(=O)C=C1CC[C@@H]1[C@@H]2CC[C@@]2(C)[C@H]1CC[C@]2(C)O ? inactive

What do you have for COc1cc(CC(C)N)cc(OC)c1OC (stereo unspecified) ? inactive

CCOP(=S)(OCC)SCCl , same question. inactive

Now give it for C=C(Cl)CCl too. inactive

Further, for CC(C)[C@]12CC(=O)[C@H](C)[C@H]1C2 ? inactive

Do the same for CCC1(CC)C(=O)C=CNC1=O please inactive

Do the same for C=CC1(C)OC(=O)N(c2cc(Cl)cc(Cl)c2)C1=O (stereo unspecified) please active

# iterate: CCC1(c2ccccc2)CCC(=O)NC1=O (stereo unspecified) inactive

Same for CCCCCCC(=O)CCCCCC/C=C/C[C@@H](O)[C@H](O)[C@@](N)(CO)C(=O)O inactive

Query NCC1(CC(=O)O)CCCCC1 next inactive

Please give the result for CCCCCCCC(=O)Cl too. inactive

Thanks! And CCCOc1nn(C(=O)NS(=O)(=O)c2ccccc2C(=O)OC)c(=O)n1C ? inactive

Also CCOC(=O)N(C)N=O , if possible. inactive

Same question, Oc1ccc(Cc2ccc(O)cc2)cc1 this time active

Note, next up: C/C(=N\NC(=O)Nc1cc(F)cc(F)c1)c1ncccc1C(=O)O inactive

Item: CC(C)(C)C(=O)C(Cl)Cl inactive

Next compound: CS(=O)(=O)Cl inactive

Same for Cl/C=C/CCl inactive

Then this compound: O=C1CCCCC1Cl (stereo unspecified) inactive

Same question, OP(O)c1ccccc1 this time inactive

Then what about the compound C=C1CC[C@@]2(O)[C@H]3Cc4ccc(O)c5c4[C@@]2(CCN3CC2CC2)[C@H]1O5 ? inactive

Now consider O=P(O)(O)c1ccccc1 and answer again. inactive

O=C/C=C/c1ccco1 , same question. inactive
